- subject_of_test: recombinant human PAD2 (human, UniProt Q9Y2J8 1-665)
- Sequence (Q9Y2J8 whole entry): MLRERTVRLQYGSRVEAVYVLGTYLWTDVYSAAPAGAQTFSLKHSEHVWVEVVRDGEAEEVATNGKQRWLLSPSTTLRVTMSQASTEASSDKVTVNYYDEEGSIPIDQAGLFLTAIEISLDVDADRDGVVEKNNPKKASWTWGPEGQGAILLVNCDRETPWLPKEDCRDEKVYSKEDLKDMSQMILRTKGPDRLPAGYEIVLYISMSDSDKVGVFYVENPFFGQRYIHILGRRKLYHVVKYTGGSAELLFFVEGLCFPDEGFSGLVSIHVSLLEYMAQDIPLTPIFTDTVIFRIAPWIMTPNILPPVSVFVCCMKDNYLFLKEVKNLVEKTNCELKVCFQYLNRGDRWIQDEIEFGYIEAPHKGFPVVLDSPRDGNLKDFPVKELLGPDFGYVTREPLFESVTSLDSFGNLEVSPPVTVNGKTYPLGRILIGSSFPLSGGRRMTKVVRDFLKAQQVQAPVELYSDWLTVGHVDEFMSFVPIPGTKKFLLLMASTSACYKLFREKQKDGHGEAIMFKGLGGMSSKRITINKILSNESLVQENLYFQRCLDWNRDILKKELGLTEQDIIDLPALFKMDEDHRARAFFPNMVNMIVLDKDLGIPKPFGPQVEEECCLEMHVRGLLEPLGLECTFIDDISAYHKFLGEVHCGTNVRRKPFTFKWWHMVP
- assay_explanation: cell-based or functional assay
Square brackets hold non-standard residues; d marks the D form. Orn(fluoroacetimidoyl) = N=C(CF)NCCC[C@H](N)C(=O)O
Each item that follows carries a reported conversion of 0708-30 by PAD2, 100 µM inhibitor.
Answer in %, number only, no unit symbol.

Look up conversion of 0708-30 by PAD2, 100 µM inhibitor: Ac-FFDSHKWH[Orn(fluoroacetimidoyl)]DFFYSD-NH2 (SMILES CC(=O)N[C@@H](Cc1ccccc1)C(=O)N[C@@H](Cc1ccccc1)C(=O)N[C@@H](CC(=O)O)C(=O)N[C@@H](CO)C(=O)N[C@@H](Cc1c[nH]cn1)C(=O)N[C@@H](CCCCN)C(=O)N[C@@H](Cc1c[nH]c2ccccc12)C(=O)N[C@@H](Cc1c[nH]cn1)C(=O)N[C@@H](CCCNC(=N)CF)C(=O)N[C@@H](CC(=O)O)C(=O)N[C@@H](Cc1ccccc1)C(=O)N[C@@H](Cc1ccccc1)C(=O)N[C@@H](Cc1ccc(O)cc1)C(=O)N[C@@H](CO)C(=O)N[C@@H](CC(=O)O)C(N)=O) [0741-02FA]
7

Could you tell me which conversion of 0708-30 by PAD2, 100 µM inhibitor is on file for Ac-DSHKFD[Orn(fluoroacetimidoyl)]DFIYSD-NH2 (SMILES CC[C@H](C)[C@H](NC(=O)[C@H](Cc1ccccc1)NC(=O)[C@H](CC(=O)O)NC(=O)[C@H](CCCNC(=N)CF)NC(=O)[C@H](CC(=O)O)NC(=O)[C@H](Cc1ccccc1)NC(=O)[C@H](CCCCN)NC(=O)[C@H](Cc1c[nH]cn1)NC(=O)[C@H](CO)NC(=O)[C@H](CC(=O)O)NC(C)=O)C(=O)N[C@@H](Cc1ccc(O)cc1)C(=O)N[C@@H](CO)C(=O)N[C@@H](CC(=O)O)C(N)=O) [0741-05FA] ?
15
